Entry source: patent US7659308B2

Assay: Cytotoxicity on C8166 cells (MTT colorimetric assay)
Assay type: cell-based
Details: human, read-out: CC50 (50% cytotoxic concentration)
endpoint: CC50 at 72 h

1) CC[C@@H]1OC(=O)c2c1ccc1ccoc21 [concentricolide A]	76.7 µg/mL
